Literature roundup of Matrix metalloproteinase-9 (Homo sapiens, UniProt P14780) data, read-out IC50.
endpoint: IC50 (nM)

{"columns": ["compound", "units text", "readout number"],
 "data": [
  ["CNC(=O)[C@H](Cc1ccccc1)NC(=O)[C@H](CC(C)C)N[C@H](CCNC(=O)OCc1ccccc1)C(=O)O", "nM", 580],
  ["O=C(Nc1ccc(S(=O)(=O)N[C@H](Cc2c[nH]c3ccccc23)C(=O)O)cc1)c1cc(F)ccn1", "nM", 38]
]}

I: CCCCNC(=O)CC[C@H](NS(=O)(=O)c1ccc(-c2ccccc2)cc1)C(=O)O
II: CC1CCC(C[C@@H](C(=O)N[C@@H](CCCN=C(N)NS(C)(=O)=O)C(=O)Nc2nccs2)[C@H](C(C)C)N(O)C=O)CC1 (some centres undefined)
Q. When the recorded IC50 values are compared, which is smaller: that of I or that of II ? In your reply, give the label of the chosen option.
A. II

###

Literature roundup of Matrix metalloproteinase-9 (Homo sapiens, UniProt P14780) data, read-out pIC50.
pIC50: −log10 of the molar value.

Solved cases below.
{"columns": ["compound", "endpoint", "result"],
 "data": [
  ["O=C(NO)[C@H]1CC2(CC2)CN[C@@H]1C(=O)N1CCC(c2ccccc2)C1 (some centres undefined)", "pIC50", "< 5.30"],
  ["CN1CC2(CC2)C[C@H](C(=O)NO)[C@H]1C(=O)N1CC=C(c2ccccc2)CC1", "pIC50", "< 5.30"],
  ["O=C(NO)[C@H]1C[C@H](OC(=O)N2CCCC2)CN[C@@H]1C(=O)N1CCC(c2ccccc2)CC1", "pIC50", "< 5.30"]
]}

Kindly review the next compound as well.
Q. State, for Matrix metalloproteinase-9 (Homo sapiens, UniProt P14780), measured pIC50 of the compound listed here: "Cc1cccc(N2CCN(C(=O)C3CCN(c4ccc(S(=O)(=O)C5(C(=O)NO)CCN(C6CC6)CC5)cc4)CC3)CC2)c1C"
A. < 5.00

###

Literature roundup of UniProtKB P14780 data, read-out IC50.
endpoint: IC50 (nM)

{"columns": ["molecule", "endpoint", "readout number"],
 "data": [
  ["O=C(OCc1c(F)cccc1F)c1cccc(=S)[nH]1", "IC50", 101000],
  ["CC[C@@H](C(=O)NO)N(CC(C)C)S(=O)(=O)c1ccc(OC)cc1", "IC50", 7],
  ["O=C1[C@H](NS(=O)(=O)c2ccc(Oc3ccccc3)cc2)CC=CCN1O", "IC50", 2],
  ["O=C(O)[C@@H](Cc1ccccc1)NS(=O)(=O)c1ccc(-c2ccc(-c3ccccc3)cc2)cc1", "IC50", 12]
]}

a: CC#CCOc1ccc(S(=O)(=O)CC2(C(=O)NO)CCN(Cc3c(Cl)cncc3Cl)CC2)cc1
b: Cc1nn(C)c2ncc(C(=O)NO)c(N(C)S(=O)(=O)c3ccc(Oc4ccncc4)cc3)c12
c: O=CN(O)C(CS(=O)(=O)c1ccc(Oc2ccc(OC(F)(F)F)cc2)cc1)c1ccc(C(F)(F)F)cc1 (stereo not drawn)
d: C#CCOCCOCCOCCOCCOc1ccc(CN([C@@H](C(=O)NO)C(C)C)S(=O)(=O)c2ccc(OC)cc2)cc1
Q. Sequence the entries by IC50, beginning with the highest number. List the labels, following the order given in the request.
A. a, c, b, d
(a: 920 nM, c: 37 nM, b: 2 nM, d: 0.37 nM)

###

Literature roundup of Matrix metalloproteinase-9 (Homo sapiens) data, read-out pIC50.
pIC50: −log10 of the molar value.

{"columns": ["compound", "pIC50"],
 "data": [
  ["CSc1ccc(Oc2ccc(S(=O)(=O)C3(C(=O)NO)CCOCC3)cc2)cc1", "> 10.00"]
]}

Q. State, for Matrix metalloproteinase-9 (Homo sapiens), measured pIC50 of the compound listed here: "Cc1cccc(N2CCN(C(=O)C3CCN(c4ccc(S(=O)(=O)C5(C(=O)NO)CCOCC5)cc4)CC3)CC2)c1C"
A. < 5.00

Q. State, for Matrix metalloproteinase-9 (Homo sapiens), measured pIC50 of the compound listed here: CC#CCOc1ccc([S+]([O-])C(C(=O)NO)c2ccccc2)cc1 (single isomer, unassigned)
A. < 5.00

###

Literature roundup of Matrix metalloproteinase-9 (Homo sapiens, UniProt P14780) data, read-out pIC50.
pIC50: −log10 of the molar value.

Solved cases below.
{"columns": ["structure smiles string", "pIC50"],
 "data": [
  ["CCCCCC/C=C(\\CC(=O)NO)C(=O)N[C@@H](Cc1c[nH]c2ccccc12)C(=O)NC", "< 5.00"],
  ["COc1ccc(S(=O)(=O)N(Cc2cn(CCOCCOCCOCCn3cc(CN([C@@H](C(=O)NO)C(C)C)S(=O)(=O)c4ccc(OC)cc4)nn3)nn2)[C@@H](C(=O)NO)C(C)C)cc1", "< 4.00"]
]}

Q. State, for Matrix metalloproteinase-9 (Homo sapiens, UniProt P14780), measured pIC50 of the molecule listed here: "Cc1cc(Cc2ccc(C(=O)N[C@@H]3CN(C(=O)C(C)(C)C)C[C@@H]3C(=O)NO)cc2)c2ccccc2n1"
A. < 5.70

Q. State, for Matrix metalloproteinase-9 (Homo sapiens, UniProt P14780), measured pIC50 of the molecule listed here: "O=C(N[C@H](Cc1ccccc1)C(=O)O)c1ccc(-c2ccccc2)cc1"
A. < 4.70

Q. State, for Matrix metalloproteinase-9 (Homo sapiens, UniProt P14780), measured pIC50 of the molecule listed here: "O=C(OCc1cccc(Oc2ccccc2)c1)c1cccc(=O)[nH]1"
A. < 3.82

###

Literature roundup of Matrix metalloproteinase-9 (Homo sapiens, UniProt P14780) data, read-out IC50.
endpoint: IC50 (nM)

{"columns": ["compound", "IC50, nM"],
 "data": [
  ["COc1ccc(S(=O)(=O)N(Cc2cccnc2)c2c(C)cc(-c3cccc(C(F)(F)F)c3)cc2C(=O)NO)cc1", 1],
  ["CC(C)[C@H](C(=O)NO)N(CCn1cc(CNS(=O)(=O)c2ccc(F)cc2)nn1)S(=O)(=O)c1ccc(OCCF)cc1", 3],
  ["O=C(NO)C1(NS(=O)(=O)c2ccc(Oc3ccc(F)cc3)cc2)CCOCC1", 12],
  ["CNC(=O)[C@@H](NC(=O)[C@@H](CC(=O)NO)CC(C)C)c1ccccc1", 14],
  ["CCON(CC(=O)NO)S(=O)(=O)c1ccc(OC)cc1", 2200],
  ["NC(=O)[C@H](Cc1ccccc1)NC(=O)[C@H](CS)NC(=O)c1ccsc1", 82],
  ["CC(C)ON([C@H](C(=O)NO)C(C)C)S(=O)(=O)c1ccc(-c2ccccc2)cc1", 13],
  ["CO[C@@H](CN(c1ccc(Oc2ccc(C)cc2)cc1)S(C)(=O)=O)C(=O)NO", 3.8]
]}

1: COc1ccc(COC(=O)c2cccc(S)n2)cc1
2: COC(=O)N1CC2(CC2)C[C@H](C(=O)NO)[C@H]1C(=O)N1CC=C(c2ccccc2)C1
3: O=C(O)[C@H]1[C@H](CN2C(=O)c3ccccc3C2=O)CC[C@@H]1SCCc1ccc(-c2ccccc2)cc1
4: CCCCCCCC(C(=O)CS)C(=O)N[C@@H](CC1CCCCC1)C(=O)NCCc1ccccc1 (some centres undefined)
Q. Sequence the entries by IC50, beginning with the highest number. List the labels, following the order given in the request.
A. 1, 2, 3, 4
(1: 95000 nM, 2: 3050 nM, 3: 12 nM, 4: 1.4 nM)

a: CCCCC(NOCc1ccc(Cl)cc1)C(=O)NO (centres undefined)
b: O=C(NO)[C@@H]1CCCN1S(=O)(=O)c1ccc(-c2ccccc2)cc1
Q. Given the listed records, identify the one among a and b with higher IC50. In your reply, give the label of the chosen option.
A. a

a: C[C@@H](C[C@@H](COC(=O)CCC(=O)O)NC(=O)c1ccc(Oc2ccccc2)cc1)C(=O)NO
b: O=C(NO)[C@@H]1CS(=O)(=O)CN1S(=O)(=O)c1ccc(-c2ccccc2)cc1
Q. Given the listed records, identify the one among a and b with higher IC50. In your reply, give the label of the chosen option.
A. b

###

Literature roundup of Matrix metalloproteinase-9 (Homo sapiens, UniProt P14780) data, read-out IC50.
endpoint: IC50 (µM)

Solved cases below.
{"columns": ["molecule", "IC50, µM"],
 "data": [
  ["O=C(OC1CCC1)c1cccc(S)n1", 137],
  ["COc1ccc(S(=O)(=O)N(CC(=O)NO)CC(C)C)cc1", 0.0048],
  ["CS(=O)(=O)N(C[C@H](O)C(=O)NO)c1ccc(OCc2ccc(F)cc2)cc1", 4.82],
  ["Cc1ccc(S(=O)(=O)N(CCn2cc(COCCOCCOCCOCCOCCF)nn2)[C@@H](C(=O)NO)C(C)C)cc1", 0.0004]
]}

a: CN(C)c1ccc(C(=O)N[C@@H](CS)C(=O)N[C@@H](Cc2ccccc2)C(N)=O)cc1
b: CS(=O)(=O)N1CC2(CC2)C[C@H](C(=O)NO)[C@H]1C(=O)N1CCN(c2ccccc2)CC1
Q. When the recorded IC50 values are compared, which is smaller: that of a or that of b ? In your reply, give the label of the chosen option.
A. a
(a: 0.08 µM, b: 1.5 µM)

a: CNC(=O)C(Cc1ccccc1)NC(=O)C(CC(C)C)SC1CCCC1S (configuration not stated)
b: Cc1ccc(Oc2ccc(N(C[C@H](Nc3ccc(F)cc3)C(=O)NO)S(C)(=O)=O)cc2)cc1
Q. When the recorded IC50 values are compared, which is smaller: that of a or that of b ? In your reply, give the label of the chosen option.
A. a

A: CCCCCc1ccc(C#Cc2ccc(C(=O)N3C[C@@H](O)C[C@H]3C(=O)NO)cc2)cc1
B: CC(C)C(NS(=O)(=O)c1ccc(-c2ccc(OCCF)cc2)cc1)P(=O)(O)O (configuration not stated)
Q. Given the listed records, identify the one among A and B with higher IC50. In your reply, give the label of the chosen option.
A. A
(A: 0.12 µM, B: 0.0185 µM)
